Where do the numbers come from? From paper PMC8097242.

- testedOn: N-terminal CRD of hGalectin-4 (Gal-4N) (Homo sapiens, UniProt P56470)
- Construct: N-terminal CRD of hGalectin-4 (amino acids 1–150, including an additional C-terminus His-Tag); His-Tag (C, cleaved yes); made in house; host or cells: E. coli BL21 (pET29b)
- Sequence (P56470 1-150): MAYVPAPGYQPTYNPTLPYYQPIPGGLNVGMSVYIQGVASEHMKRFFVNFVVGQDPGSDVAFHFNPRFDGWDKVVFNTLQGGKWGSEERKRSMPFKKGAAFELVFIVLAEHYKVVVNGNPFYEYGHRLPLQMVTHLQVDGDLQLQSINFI
- assayComment: Isothermal titration calorimetry (ITC)
- Type: binding
recordedMetric: ΔG (kcal mol^–1) (ITC)

[
  {
    "compound": "CC(=O)N[C@@H]1[C@@H](O[C@@H]2O[C@H](CO)[C@H](O)[C@H](O[C@H]3O[C@H](CO)[C@H](O)[C@H](O)[C@H]3O)[C@H]2O[C@@H]2O[C@@H](C)[C@@H](O)[C@@H](O)[C@@H]2O)[C@H](O)[C@@H](CO)O[C@H]1O [B type-1 (tetra)]",
    "ΔG (kcal mol^–1) (ITC)": "−5.4"
  },
  {
    "compound": "CC(=O)NC1C(O)OC(CO)C(OC2OC(CO)C(O)C(OC3OC(CO)C(O)C(O)C3O)C2OC2OC(C)C(O)C(O)C2O)C1O (stereo not drawn) [B type-2 (tetra)]",
    "ΔG (kcal mol^–1) (ITC)": "−5.5"
  },
  {
    "compound": "CC(=O)N[C@@H]1[C@@H](O[C@@H]2O[C@H](CO)[C@H](O)[C@H](O[C@H]3O[C@H](CO)[C@H](O)[C@H](O)[C@H]3NC(C)=O)[C@H]2O[C@@H]2O[C@@H](C)[C@@H](O)[C@@H](O)[C@@H]2O)[C@H](O)[C@@H](CO)O[C@H]1O [A type-1 (tetra)]",
    "ΔG (kcal mol^–1) (ITC)": "−4.9"
  },
  {
    "compound": "CC1OC(OC2C(OC3C(CO)OC(O)C(O)C3O)OC(CO)C(O)C2OC2OC(CO)C(O)C(O)C2O)C(O)C(O)C1O (stereo not drawn) [B type-6 (tetra)]",
    "ΔG (kcal mol^–1) (ITC)": "−5.9"
  },
  {
    "compound": "CC(=O)NC1C(O)OC(CO)C(OC2OC(CO)C(O)C(OC3OC(CO)C(O)C(O)C3NC(C)=O)C2OC2OC(C)C(O)C(O)C2O)C1O (stereo not drawn) [A type−2 (tetra)]",
    "ΔG (kcal mol^–1) (ITC)": "−5.1"
  },
  {
    "compound": "CC(=O)NC1C(OC2C(O)C(CO)OC(OC3C(CO)OC(O)C(O)C3O)C2OC2OC(C)C(O)C(O)C2O)OC(CO)C(O)C1O (stereo not drawn) [A type-6 (tetra)]",
    "ΔG (kcal mol^–1) (ITC)": "−5.6"
  }
]
